# tgt: T1, AAV2 (UniProt P03135 1-735)
# T1 construct: also called adeno-associated virus serotype 2
# protocol text: SPR, AAV on CM5 chip;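 note: surface plasmon resonance with AAV amine-coupled to the chip as ligand, nanobodies injected as analyte over a concentration series, rate constants and affinity fitted from binding curves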
With a cut-off of 1 nM, any Kd strictly below it is called rule met; any Kd meeting it or above is called rule not met.

{"binder": "A4-012 (VHH) VHH: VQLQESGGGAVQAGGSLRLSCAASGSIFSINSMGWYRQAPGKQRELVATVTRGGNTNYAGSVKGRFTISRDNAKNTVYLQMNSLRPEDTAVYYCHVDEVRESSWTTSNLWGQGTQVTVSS", "label": "rule not met"}
{"binder": "A4-001 (VHH) VHH: VQLQESGGGLVQPGGSLRLSCAASGRSFSINTMGWYRQAPGKQRELVATVTRGGSTNYAGSVKGRFTISRDNAKNTVYLQMNSLRPEDTAVYYCHIDEVRQSSWTTSNIWGQGTQVTVSS", "label": "rule not met"}
{"binder": "A4-024 (VHH) VHH: VQLQESGGGLVQPGGSLRLSCAASGSNFRINTMGWYRQAPGKQRELVATVTRGGSTNYADSVKGRFTISRDNPKNTVYLQMNSLRPEDTAVYYCHVDEVRESSWTTSNLWGQGTQVTVSS", "label": "rule not met"}
{"binder": "A4-032 (VHH) VHH: VQLQESGGGLVQPGGSLRLSCVASGSSFSINTMGWYRQAPGKQRELVATVTRDGSTNYANSVKGRFTISRDNAKNTVYLQMNSLRPEDTAVYYCHVDEVRQSSWTTSNLWGQGTQVTVSS", "label": "rule not met"}
{"binder": "A4-038 (VHH) VHH: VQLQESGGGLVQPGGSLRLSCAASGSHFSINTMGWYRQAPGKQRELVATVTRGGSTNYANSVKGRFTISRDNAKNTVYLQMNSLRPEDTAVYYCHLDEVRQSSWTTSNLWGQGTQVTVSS", "label": "rule met"}
{"binder": "A4-039 (VHH) VHH: VQLQESGGGLVQPGGSLRLSCAASGSGFSINTMGWYRQAPGKWRELVATVTRGGSTNYAGSVKGRFTISRDNAKNTVYLQMNSLRPEDTAVYYCHIDEVRQSSWTTSNLWGQGTQVTVSS", "label": "rule not met"}
{"binder": "A4-021 (VHH) VHH: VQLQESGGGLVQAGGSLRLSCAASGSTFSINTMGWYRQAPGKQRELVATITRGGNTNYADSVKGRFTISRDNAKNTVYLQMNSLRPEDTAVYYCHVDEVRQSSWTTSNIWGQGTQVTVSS", "label": "rule met"}
{"binder": "A4-048 (VHH) VHH: VQLQESGGGLVQPGGSLRLSCAASGSMFSINTMGWYRQAPGKQRELVATVTRGGNTNYAGSVKGRFTISRDNAKNTVYLQMNSLRPEDTAVYYCHVDEVRQSSWTTSNLWGQGTQVTVSS", "label": "rule not met"}
